conditions.used: 373.15 K; 100 kPa; Liquid; Vibrating tube method
Numbers after ± are expanded uncertainties.
For each record, write down the corresponding mass density.

>>> result("CCn1cc[n+](C)c1.N#C[B-](C#N)(C#N)C#N [1-ethyl-3-methylimidazolium tetracyanoborate]")
"980.3 ± 2.3 kg/m3"
>>> result("C=CCn1cc[n+](C)c1.O=S(=O)([N-]S(=O)(=O)C(F)(F)F)C(F)(F)F")
"1427.3 ± 3.2 kg/m3"
>>> result("CCCC[N+]1(C)CCCC1.O=S(=O)([N-]S(=O)(=O)C(F)(F)F)C(F)(F)F")
"1329.8 ± 3 kg/m3"

Ask | Field request: mass density | item: CCCCCCn1cc[n+](C)c1.N#C[B-](C#N)(C#N)C#N [1-hexyl-3-methylimidazolium tetracyanoborate]
Reply | 938.7 ± 2.2 kg/m3

Data provenance is the NIST ThermoML archive (doi:10.1021/acs.jced.7b00773).
